Experiment: in vitro
Details: rat, microsomes
MEASURED_ATTRIBUTE: microsomal CLint (µL/min/mg)

>>> quantitative_result("COc1ccc(-c2nnc(C(=O)N3CC(Oc4ccc(CN(C)C)cn4)C3)o2)cc1")
145
>>> quantitative_result("COc1ccc(-c2nnc(C(=O)N3CC(Oc4ccc(CN(C)C)cc4)C3)o2)cc1")
53
>>> quantitative_result("COc1ccc(-c2nnc(C(=O)N3CC(Oc4ccc(CN(C)C)c(F)c4)C3)o2)cc1")
218

P. O=C(c1nnc(-c2ccc(Cl)cc2)o1)N1CCC(Oc2ccc(CN3CCCC3)cc2)CC1
Q. COc1ccc(-c2nnc(C(=O)N3CC(Oc4ccc(CN(C)C)c(C)c4)C3)o2)cc1
Of P versus Q , which is the one with smaller reported microsomal CLint? State your choice using its label.
P

* * *

Assay: in vitro
Settings: human, Caco-2
MEASURED_ATTRIBUTE: Papp A→B (×10⁻⁶ cm/s)

>>> quantitative_result("COc1ccc(-c2nnc(C(=O)N3CC(Oc4ccc(CN(C)C)c(C)c4)C3)o2)cc1")
54
>>> quantitative_result("O=C(c1nnc(-c2ccccc2Cl)o1)N1CCC(Oc2ccc(CN3CCCC3)cc2)CC1")
59
>>> quantitative_result("COc1ccc(-c2nnc(C(=O)N3CC(Oc4ccc(CN5CCOCC5)c(OC)c4)C3)o2)cc1")
51
>>> quantitative_result("CC1(O)CCN(Cc2ccc(OC3CN(C(=O)c4nnc(-c5ccccc5)o4)C3)cc2)C1 (centres undefined)")
34
>>> quantitative_result("COc1ccc(-c2nnc(C(=O)N3CCC(Oc4ccc(CN5CCCC5)nc4)CC3)o2)cc1")
31

a. O=C(c1nnc(-c2ccccc2)o1)N1CC(Oc2ccc(CN3CC4(COC4)C3)cc2)C1
b. COc1ccc(-c2nnc(C(=O)N3CCC(Oc4ccc(CN5CCCC5)cn4)CC3)o2)cc1
c. COc1ccc(-c2nnc(C(=O)N3CCC(Oc4ccc(CN5CC(O)C(C)(C)C5)cc4)CC3)o2)cc1 (centres undefined)
Sort entries by Papp A→B from minimum to maximum value. Could you list the labels in the order requested?
c, b, a
(c: 34 ×10⁻⁶ cm/s, b: 49 ×10⁻⁶ cm/s, a: 79 ×10⁻⁶ cm/s)

* * *

Experiment: physchem
Details: buffer, pH 7.4
MEASURED_ATTRIBUTE: logD

Reference set (2 entries):
>>> quantitative_result("COc1ccc(-c2nnc(C(=O)N3CC(Oc4ccc(CN5CC(OC)C5)cc4)C3)o2)cc1")
2.3
>>> quantitative_result("COc1ccc(-c2nnc(C(=O)N3CC(Oc4ccc(CN5CC6(CCCO6)C5)cc4)C3)o2)cc1")
2.7

1. COc1ccc(-c2nnc(C(=O)N3CC(Oc4ccc(CN5CCOCC5)c(OC)c4)C3)o2)cc1
2. O=C(c1nnc(-c2ccccc2)o1)N1CCC(Oc2ccc(CN3CCCC3)cc2)CC1
Of 1 versus 2 , which is the one with smaller reported logD? State your choice using its label.
2
(2: 2.2, 1: 3.3)

* * *

Assay: physchem
Conditions: buffer, pH 7.4
MEASURED_ATTRIBUTE: logD

Reference set (3 entries):
>>> quantitative_result("COc1ccc(-c2nnc(C(=O)N3CCC(Oc4ccc(CN5CCC(O)C5)cc4)CC3)o2)cc1 (stereo unspecified)")
2
>>> quantitative_result("COc1ccc(-c2nnc(C(=O)N3CC(Oc4ccc(CN(C)C)c(C)c4)C3)o2)cc1")
2
>>> quantitative_result("O=C(c1nnc(-c2ccccc2)o1)N1CC(Oc2ccc(CN3CC4(CCOC4)C3)cc2)C1")
2.1

1. COc1ccc(-c2nnc(C(=O)N3CC(Oc4ccc(CN(C)C)c(F)c4)C3)o2)cc1
2. CN(Cc1ccc(OC2CN(C(=O)c3nnc(-c4ccccc4)o3)C2)cc1)CC1(C)COC1
Of 1 versus 2 , which is the one with smaller reported logD? State your choice using its label.
1

These entries and their values trace back to ChEMBL document CHEMBL3784951.
